B1: Hairpin Ribozyme (parent)
chain: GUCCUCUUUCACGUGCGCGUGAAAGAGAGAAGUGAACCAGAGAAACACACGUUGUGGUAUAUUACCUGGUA

# Variants of: B1
# EXPERIMENTAL_PROTOCOL: self-cleavage, relative activity (ratio to wild type); higher = more cleavage; co-transcriptional
PARAMETER: self-cleavage

>>> reported_measurement("U14A G57U")
0.195
>>> reported_measurement("G1U C4U")
0.206
>>> reported_measurement("U14A C48G")
0.196
>>> reported_measurement("U5A A47G")
0.102
>>> reported_measurement("G51C G57U")
0.204
